TEST_PROTOCOL: in vitro
TEST_SETTINGS: human
CC50 for assorted molecules

# MOLECULE, OPERATOR_SYMBOL, CC50 / µM
data = [
    ("CC(C)N1CCC(N(CCc2ccccc2)Cc2ccccc2)CC1", "=", 37.6),
    ("CN1CCC(N(CCc2ccccc2)Cc2ccccc2)CC1", "=", 41.1),
    ("Fc1ccc(CN2CCC(N(CCc3ccccc3)Cc3ccccc3)CC2)cc1", "=", 56.3),
    ("c1ccc(CCN(Cc2ccccc2)C2CCN(Cc3ccc4c(c3)OCCO4)CC2)cc1", "=", 36.6),
    ("c1ccc(CCN(Cc2ccccc2)C2CCNCC2)cc1", "=", 23.5),
    ("CC(C)CN1CCC(N(CCc2ccccc2)Cc2ccccc2)CC1", "=", 37.6),
    ("CCCN1CCC(N(CCc2ccccc2)Cc2ccccc2)CC1", "=", 38.2),
    ("NCCOCCOCCOCCOCCN1CCN(C(c2ccccc2)c2ccc(Cl)cc2)CC1 (racemic) [(CH2CH2O)4CH2CH2NH2 (R,S)]", "=", 12.2),
    ("N#Cc1ccc(CN2CCC(N(CCc3ccccc3)Cc3ccccc3)CC2)cc1", "=", 100),
    ("c1ccc(CCN(Cc2ccccc2)C2CCN(Cc3ccc(-c4ccccc4)cc3)CC2)cc1", ">", 100),
    ("[2H]C([2H])([2H])N1CCC(N(CCc2ccccc2)Cc2ccccc2)CC1", "=", 100),
    ("Clc1ccc(CN2CCC(N(CCc3ccccc3)Cc3ccccc3)CC2)cc1", ">", 100),
    ("CCN1CCN([C@@H](c2ccccc2)c2ccc(Cl)cc2)CC1 [Et (S)]", "=", 40),
    ("O=C(c1ccccc1)N1CCC(N(CCc2ccccc2)Cc2ccccc2)CC1", "=", 94),
    ("c1ccc(CCN(Cc2ccccc2)C2CCN(C3CCCC3)CC2)cc1", "=", 15),
]

---

CC50 for assorted molecules
Test system: Huh7.5.1 cells
TEST_PROTOCOL: in vitro
TEST_SETTINGS: human

# MOLECULE, STUDY_TARGET, UNIT_TAG, OPERATOR_SYMBOL, CC50
rows = [
    ("NCCOCCN1CCN(C(c2ccccc2)c2ccc(Cl)cc2)CC1 (racemic) [CH2CH2OCH2CH2NH2 (R,S)]", "Huh7.5.1 cells", "µM", "=", 8.18),
    ("CN1CCN([C@@H](c2ccccc2)c2ccc(Cl)cc2)CC1 [(S)-CCZ]", "Huh7.5.1 cells", "µM", "=", 33.4),
    ("Clc1ccc([C@H](c2ccccc2)N2CCN(C3CCCC3)CC2)cc1 [Cyclopentyl (S)]", "Huh7.5.1 cells", "µM", "=", 30.4),
    ("CN1CCC(N(c2ccccc2)c2ccc(OC(C)(C)C)cc2)CC1", "Huh7.5.1 cells", "µM", "=", 78.7),
    ("NC(=O)COCCN1CCN(C(c2ccccc2)c2ccc(Cl)cc2)CC1 (racemic) [CH2CH2OCH2CONH2 (R,S)]", "Huh7.5.1 cells", "µM", ">", 100),
    ("Clc1ccc(C(c2ccc(Cl)cc2)N2CCCCC2)cc1", "Huh7.5.1 cells", "µM", "=", 69),
    ("COc1ccc(CN2CCN([C@@H](c3ccccc3)c3ccc(Cl)cc3)CC2)c(OC)c1 [2-4-dimethoxybenzyl (S)]", "Huh7.5.1 cells", "µM", "=", 38.4),
    ("[2H]C([2H])([2H])CN1CCN([C@H](c2ccccc2)c2ccc(Cl)cc2)CC1 [CD3CH2 (R)]", "Huh7.5.1 cells", "µM", "=", 81.5),
    ("CC(C)CN1CCN([C@@H](c2ccccc2)c2ccc(Cl)cc2)CC1 [2-methyl-1-propyl (S)]", "Huh7.5.1 cells", "µM", "=", 51.7),
]
